B1: VPS39 (parent)
chain: QQVKCIITEEKVCMVCKKKIGNSA

variants of: B1; assay: protein stability index of a GFP-peptide fusion (GPS, HEK-293T) (PSI 1-6); higher = more stable; details: c terminus: a fixed tail appended;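 also: lentivirally expressed fusions sorted by FACS into six bins by GFP to DsRed ratio, PSI derived from sequencing read proportions per bin multiplied by bin number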
readout.label: protein stability index
Answers are plain numbers.

V12S: 3.41
K11G: 2.35
N22I: 1.75
S23A: 3.52

# map each variant to its protein stability index
1. C16N
2. C5T
3. V3R
4. K17F
5. Q1G
6. N22E
7. V15A

1. 3.88
2. 3.16
3. 2.5
4. 2.85
5. 3.05
6. 3.33
7. 3.32

# map each variant to its protein stability index
1. G21M
2. V3W
3. K18N
4. V12Q
5. Q1F
6. V15W
7. K18S
8. V12Y

2.13
1.49
2.94
2.5
1.49
2.97
3.09
2.31

# map each variant to its protein stability index
1. S23G
2. T8A
3. M14P
4. I6K
5. Q1R
6. K18I

[3.05, 2.45, 3.15, 3.46, 2.24, 2.43]

# map each variant to its protein stability index
1. S23T
2. K4T

[2.78, 2.44]

# map each variant to its protein stability index
1. I7A
2. S23H
3. I20M
4. I20N
5. K19R
6. E9C
7. S23N

3.38
2.98
3.33
2.69
2.28
1.8
2.41

# map each variant to its protein stability index
1. K19L
2. K19V
3. T8L
4. E9G
5. I7G

[2.56, 2.5, 2.16, 2, 2.77]

Name the recorded protein stability index for `M14T` . 3.3
